target: HCV polymerase (NS5B) type 1a (Hepatitis C virus genotype 1a, UniProt P26664); construct: made in house; host or cells: Escherichia coli (by the 'similar method' of the 1b enzyme); assay: Assay of enzyme (HCV polymerase) inhibitory activity, type 1a enzyme; format: biochemical, HCV type 1a (cloned from the blood of patients); conditions: HCV polymerase inhibitory activity IC50, 1a, type 1a enzyme
Provide the recorded IC50 for the entries that follow.

Study these solved cases before continuing.
{"columns": ["Compound", "Endpoint name", "Endpoint result"],
 "data": [
  ["CN(C)C(=O)c1nncc2sc(N3CCN(S(=O)(=O)c4ccc(OC(F)(F)F)cc4)[C@@H](C(=O)NCc4ccc(OC(F)(F)F)cc4)C3)nc12", "IC50", "< 100 nM"],
  ["O=C(NCc1ccc(OC(F)F)cc1)[C@H]1CN(c2nn3ccc(=O)nc3s2)CCN1S(=O)(=O)c1ccc(OC(F)F)cc1", "IC50", "< 100 nM"],
  ["CCCc1ccc(CNC(=O)[C@H]2CN(c3cnc(C(=O)O)cn3)CCN2S(=O)(=O)c2ccc(Br)s2)cc1", "IC50", "< 100 nM"],
  ["CC(C)Nc1ncc2sc(N3CCN(S(=O)(=O)c4ccc(OC(F)(F)F)cc4)[C@@H](C(=O)NCc4ccc(OC(F)(F)F)cc4)C3)nc2n1", "IC50", "< 100 nM"],
  ["CCC(F)(F)c1ccc(CNC(=O)[C@H]2CN(C3=NC(=O)CS3)CCN2S(=O)(=O)c2ccc(OC(F)(F)F)cc2)cc1", "IC50", "< 100 nM"],
  ["N#Cc1ncc2sc(N3CCN(S(=O)(=O)c4ccc(OC(F)(F)F)cc4)[C@@H](C(=O)NCc4ccc(OC(F)(F)F)cc4)C3)nc2n1", "IC50", "< 100 nM"]
]}

Parameter requested: IC50. Apply to each item below.
1. CCCc1ccc(CNC(=O)[C@H]2CN(c3nc4cn[nH]c(=O)c4s3)CCN2S(=O)(=O)c2ccc([N+](=O)[O-])cc2)cc1
2. CC(C)(C)c1ccc(CNC(=O)[C@H]2CN(c3cnc4cnccc4n3)CCN2S(=O)(=O)c2ccc(OC(F)(F)F)cc2)cc1
3. CC(C)(O)c1nc(N)c2sc(N3CCN(S(=O)(=O)c4ccc(OC(F)(F)F)cc4)[C@@H](C(=O)NCc4ccc(OC(F)(F)F)cc4)C3)nc2n1
4. O=C(NCc1ccc(OC(F)(F)F)cc1)[C@H]1CN(c2nc3ccc(=O)[nH]c3s2)CCN1S(=O)(=O)c1ccc(C(F)(F)F)cc1
5. CCC(F)(F)c1ccc(CNC(=O)[C@H]2CN(c3cnc4cncnc4n3)CCN2S(=O)(=O)c2ccc(-c3cccc(O)c3)cc2)cc1
6. Cc1c(Cl)c(=O)nc2sc(N3CCN(S(=O)(=O)c4ccc(OC(F)(F)F)cc4)[C@@H](C(=O)NCc4ccc(OC(F)(F)F)cc4)C3)nn12
7. CCCc1ccc(CNC(=O)[C@H]2CN(C(=O)Nc3ccccc3C(=O)OC)CCN2S(=O)(=O)c2ccc(OC(F)(F)F)cc2)cc1

["< 100 nM", "< 100 nM", "< 100 nM", "< 100 nM", "< 100 nM", "< 100 nM", "> 1000 nM"]

Answer for every listed entry: what is its IC50? The entries follow.
1. CC(O)c1ncc2sc(N3CCN(S(=O)(=O)c4ccc(OC(F)(F)F)cc4)[C@@H](C(=O)NCc4ccc(OC(F)(F)F)cc4)C3)nc2n1 (stereo partly drawn)
2. O=C(NCc1ccc(OC(F)F)cc1)[C@H]1CN(c2nc3nc(C4CC4)ncc3s2)CCN1S(=O)(=O)c1ccc(OC(F)F)cc1
3. CCC(F)(F)c1ccc(CNC(=O)[C@H]2CN(C(=O)CNc3cccnc3)CCN2S(=O)(=O)c2ccc(OC(F)(F)F)cc2)cc1
4. CCCc1ccc(CNC(=O)[C@H]2CN(c3nc(C)c(C(O)C(=O)OCC)s3)CCN2S(=O)(=O)c2ccc(OC(F)(F)F)cc2)cc1 (stereo partly drawn)
5. Cc1cc(=O)n2nc(N3CCN(S(=O)(=O)c4ccc(OC(F)(F)F)cc4)[C@@H](C(=O)NCc4ccc(OC(F)(F)F)cc4)C3)sc2n1
6. O=C(NCc1ccc(OCF)cc1)[C@H]1CN(c2nc3ncncc3s2)CCN1S(=O)(=O)c1ccc(OC(F)(F)F)cc1
7. CON(C)C(=O)c1ncc2sc(N3CCN(S(=O)(=O)c4ccc(OC(F)(F)F)cc4)[C@@H](C(=O)NCc4ccc(OC(F)(F)F)cc4)C3)nc2n1
8. O=C(NCc1ccc(OC(F)(F)F)cc1)[C@H]1CN(c2ccc3nccnc3c2)CCN1S(=O)(=O)c1ccc(OC(F)(F)F)cc1

["< 100 nM", "< 100 nM", "100 to 1000 nM", "100 to 1000 nM", "100 to 1000 nM", "< 100 nM", "< 100 nM", "< 100 nM"]

Each compound below has a reported value. Please supply its IC50.
1. CCc1ncc2sc(N3CCN(S(=O)(=O)c4ccc(C(F)(F)F)cc4)[C@@H](C(=O)NCc4ccc(OC(F)(F)F)cc4)C3)nc2n1
2. O=C(NCc1ccc(OC(F)(F)F)cc1)[C@H]1CN(c2cnc3nccnc3n2)CCN1S(=O)(=O)c1ccc(OC(F)(F)F)cc1
3. O=C(NCc1ccc(OC(F)(F)F)c(F)c1)[C@H]1CN(c2nc3nc(C4CC4)ncc3s2)CCN1S(=O)(=O)c1ccc(OC(F)(F)F)cc1

["< 100 nM", "< 100 nM", "< 100 nM"]
